area under the dose-response curve by entry:
# Tested on: SB.msgc-1
# protocol-details: area under the dose-response curve of % viability (trapezoidal, 11 doses) (% viability x log10 concentration); higher = less cytotoxic
# condition-info: SB.msgc-1 (sporadic gastric cancer)
Give your answer as a number; write no unit.

Examples with their reported area under the dose-response curve follow.
molecule	experimental-target	area under the dose-response curve
C[S+](=O)([O-])c1ccc(-c2cnc(N)c(C(=O)Nc3ccccc3)n2)cc1 [VE-821] (top concentration 46.0829 µM)	SB.msgc-1	504
CN1CCN(c2cccc(Nc3nc4c(-c5ccc([S+](C)(=O)[O-])cc5)cccn4n3)c2)CC1 (top concentration 46.0829 µM)	SB.msgc-1	494

C[C@H]1[C@H](NC(=O)/C(=N/OC(C)(C)C(=O)O)c2csc(N)n2)C(=O)N1[S+](=O)([O-])O [Aztreonam] (top concentration 46.0829 µM) on SB.msgc-1 gives area under the dose-response curve = 502

Case CCC(=O)O[C@@]1(CC[C@H]2[C@@H]3CCC/4=C/C(=O)CC[C@]4(C)[C@H]3CC[C@]12C)C(=O)CO [17 alpha-propionate] (top concentration 46.0829 µM) , SB.msgc-1, area under the dose-response curve recorded as 506

Provenance of the data: the supplement of paper PMC5412046
